Exercise: for every item that follows, state its recorded IC50.
tested-system: GST-CIB1 : F-scrambled peptide (Homo sapiens, UniProt Q99828)
Construct: made in house; host or cells: BL-21 plus RIL cells (E. coli)
Sequence (Q99828 1-191): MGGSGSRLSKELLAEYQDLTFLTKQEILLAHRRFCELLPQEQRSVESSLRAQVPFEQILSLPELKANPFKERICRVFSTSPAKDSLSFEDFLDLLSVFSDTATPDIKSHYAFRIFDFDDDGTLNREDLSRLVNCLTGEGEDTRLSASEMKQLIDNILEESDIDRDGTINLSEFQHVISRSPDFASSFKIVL
assay-name: FP scrambled-peptide counter screen, 1536-well format
Assay type: binding
particulars: Table S3, counterscreen; read-out: IC50 [μM] (counterscreen)

Answered cases to consult:
[
  {
    "compound": "NS(=O)(=O)c1ccc(Cc2cn(-c3nc(C(=O)O)cs3)nc2-c2ccc(F)c(F)c2)cc1.O=C(O)C(F)(F)F [NCGC00356753-01]",
    "IC50": "56.2 µM"
  },
  {
    "compound": "O=C(O)C(F)(F)F.O=C1CCCC2=C1C(c1ncccc1C(F)(F)F)N=C(Nc1nc3ccccc3o1)N2 (centres unmarked) [NCGC00189070-01]",
    "IC50": "28.2 µM"
  },
  {
    "compound": "CN(C)CCc1c[nH]c2cccc(O)c12 [NCGC00247728-01]",
    "IC50": "89.1 µM"
  }
]

Field: IC50. Fill in for each record below.
1. Cc1ccc(C(=O)NC(c2ccco2)c2cc(Cl)c3cccnc3c2O)cc1 (centres unmarked) [NCGC00188372-01]
2. O=C(O)C(F)(F)F.O=C1CCCC2=C1C(c1n[nH]cc1Cl)NC(Nc1nc3ccccc3o1)=N2 (centres unmarked) [NCGC00238624-04]
3. Cc1cc(NS(=O)(=O)c2ccc(NC(=O)Cc3cccc4ccccc34)cc2)no1.O=C(O)C(F)(F)F [NCGC00244880-01]
4. CCc1ccc(NC(=O)C(=O)NNC(=O)c2cccs2)cc1.O=C(O)C(F)(F)F [NCGC00244112-01]
5. COC(=O)c1ccc(O)c2ncc(-c3ccc(C(=O)NCCCN(C)C)cc3)cc12.O=C(O)C(F)(F)F [NCGC00189510-01]
6. NC(=O)c1cccc(-c2cnc3c(O)ccc(C(=O)O)c3c2)c1.O=C(O)C(F)(F)F [NCGC00241055-01]
7. O=C(c1cc(O)c(O)c(O)c1)c1ccc(O)c(O)c1O [NCGC00249050-02]

a:
1. 89.1 µM
2. 35.5 µM
3. 20 µM
4. 89.1 µM
5. 89.1 µM
6. 35.5 µM
7. 25.1 µM

Field: IC50. Fill in for each record below.
1. CN(C)CC1CCCN(C2CCN(C(=O)c3cccc(-c4cc(O)c5ncccc5c4)c3)CC2)C1.O=C(O)C(F)(F)F (centres unmarked) [NCGC00247737-01]
2. CNc1oc(-c2c[nH]c3ccccc23)nc1C#N.O=C(O)C(F)(F)F [NCGC00262511-01]
3. NC(=O)C1CCN(c2ncc(Br)s2)CC1 [NCGC00184919-01]
4. CN(C)CCCNC(=O)c1ccc(-c2cc(O)c3ncccc3c2)cc1 [NCGC00183808-06]

a:
1. 39.8 µM
2. 28.2 µM
3. 39.8 µM
4. 70.8 µM

Field: IC50. Fill in for each record below.
1. COc1ccccc1Nc1cc2ccccc2c(O)n1 [NCGC00183215-01]
2. Nc1nc2c(s1)C(c1ccccc1C(F)(F)F)CC(=O)N2.O=C(O)C(F)(F)F (centres unmarked) [NCGC00488247-02]
3. CCCCNC(=S)N/N=C1\C(=O)Nc2ccccc21.O=C(O)C(F)(F)F [NCGC00229539-01]
4. N#Cc1ccc(NS(=O)(=O)c2ccc(NC(=O)Cc3ccc(F)c(Cl)c3)cc2)cc1.O=C(O)C(F)(F)F [NCGC00343891-01]
5. CO[C@@H]1C(N(C)C(=O)c2ccccc2)C[C@H]2O[C@]1(C)n1c3ccccc3c3c4c(c5c6ccccc6n2c5c31)C(=O)NC4=O (some centres unmarked) [NCGC00345083-01]

a:
1: 35.5 µM; 2: 28.2 µM; 3: 11.2 µM; 4: 89.1 µM; 5: 22.4 µM

Field: IC50. Fill in for each record below.
1. COc1ccc(CC(NC(C)=O)C(=O)O)cc1 (centres unmarked) [NCGC00384987-01]
2. C=C1C(=O)OC2C(OC(=O)C=C(C)C)C(C)=C3C(=O)C=C(C)C3C(O)C12 (centres unmarked) [NCGC00380563-01]
3. COc1c(O)cccc1[C@H](O)C1CCN(CCc2ccc(F)cc2)CC1 [NCGC00168042-01]
4. N#Cc1ccc(NS(=O)(=O)c2ccc(NC(=O)Cc3ccc(Cl)c(Cl)c3)cc2)cc1.O=C(O)C(F)(F)F [NCGC00253445-01]
5. Cc1c2c(=O)n(-c3ccccc3)[nH]c2cc(=O)n1-c1cccnc1.O=C(O)C(F)(F)F [NCGC00248472-01]

a:
1: 79.4 µM; 2: 2.2 µM; 3: 50.1 µM; 4: 70.8 µM; 5: 39.8 µM
